Ref: paper PMC11432006

Recorded ratio to parent values for a group of binders are listed next.
Target: lysozyme from egg, P00698
Sequence (P00698 19-147): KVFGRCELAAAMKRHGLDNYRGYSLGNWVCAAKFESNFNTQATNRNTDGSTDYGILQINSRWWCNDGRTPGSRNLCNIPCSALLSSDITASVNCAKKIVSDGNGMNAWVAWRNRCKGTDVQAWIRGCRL
Test: SPR
Details: chain shown with the change; lysozyme immobilized, VNAR flowed over; 1:1 fitting model
Respond numerically, and do not add a unit to the figure.

[[record]]
binder = "anti-lysozyme VNAR (lyso-VNAR) C30G; C112.1L (protein) ARVDQTPQTITKETGESLTINCVLRDSNGALSSTYWYRKKSGSTNEESISKGGRYVETVNSGSKSFSLRINDLTVEDSGTYRCKPESRYGSYDAELAALNDQYGGGTVVTVN"
observed_value = 12.7


Now take the following binder into account.
Identify the reported ratio to parent for the following entry. anti-lysozyme VNAR (lyso-VNAR) C30W; C112.1V (protein) ARVDQTPQTITKETGESLTINCVLRDSNWALSSTYWYRKKSGSTNEESISKGGRYVETVNSGSKSFSLRINDLTVEDSGTYRCKPESRYGSYDAEVAALNDQYGGGTVVTVN
54.3
